FYI, the data here is from patent US20200181255A1.

Molecular target: T1, recombinant human IL-23 (human, UniProt Q9NPF7 20-189; P29460 23-328)
T1 construct: also called rhuIL-23; recombinant human (rhu) IL-23
T1 sequence 1: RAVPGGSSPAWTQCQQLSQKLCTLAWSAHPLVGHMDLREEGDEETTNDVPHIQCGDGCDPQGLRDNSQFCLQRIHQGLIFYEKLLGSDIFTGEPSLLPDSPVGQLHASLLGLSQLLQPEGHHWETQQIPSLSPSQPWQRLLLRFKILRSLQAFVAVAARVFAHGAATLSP
T1 sequence 2: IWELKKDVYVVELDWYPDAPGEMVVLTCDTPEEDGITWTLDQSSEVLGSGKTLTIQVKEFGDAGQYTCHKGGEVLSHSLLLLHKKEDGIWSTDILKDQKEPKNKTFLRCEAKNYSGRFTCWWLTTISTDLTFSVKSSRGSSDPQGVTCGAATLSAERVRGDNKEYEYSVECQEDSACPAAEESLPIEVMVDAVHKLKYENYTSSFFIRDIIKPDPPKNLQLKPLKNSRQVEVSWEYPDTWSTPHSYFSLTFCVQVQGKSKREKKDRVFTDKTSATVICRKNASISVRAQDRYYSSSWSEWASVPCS
Test: KinExA, derived from KD=Koff/Kon
measured-metric: koff (s⁻¹)
Give bare numbers, in s⁻¹.

Qu. Consider the binder Antibody C (antibody, V domains shown, also called VH10/VL10) VH: QVQLQESGPGLVKPSQTLSLTCTVSGGSINSGGYYWSWIRQHPGKGLEWIGYIYYSGSSYYNPSLKSRVTISVDTSQNQFSLKLSSVTAADTAVYYCARDRGHYYGMDVWGQGTTVTVSS VL: DIQMTQSPSSVSASVGDRVTITCRASQGSSSWFAWYQQKPGKAPKLLIYAASSLQSGVPSRFSGSGSGTDFTLTISSLQPEDFATYYCQQANSFPFTFGPGTKVDIK . State its measured koff.
Ans. 4.1e-06
